# assay-system: penicillin-binding protein 1b from E. coli (transglycosylase) (Escherichia coli)
# Construct: PBP1b[58-804] was amplified from E. coli genomic DNA and cloned into the expression vector pET15b; His6 (N, cleaved yes); made in house; host or cells: E. coli BL21(DE3)
# test-details: Lipid II polymerization / transglycosylase (TG) activity assay
# Assay type: biochemical
# condition-context: 50 μM compound; TG activity remaining (0% = full inhibition)
What TG Activity at various concentration of cmpd: 50 μM was measured for each of the following?
One number for each entry, in %.

// known answers, use as guide
compound	numeric-readout
Cc1ccc(C(C)C)cc1Oc1ccc(Cl)cc1NC(=O)c1cc(Cl)ccc1O	90
O=C(Nc1cc(Cl)ccc1Oc1ccccc1)c1ccccc1O	100
O=C(Nc1ccc(Cl)cc1)c1cc(Br)cc(Br)c1O [KTS-9]	100
O=C(Nc1cc(Cl)ccc1O)c1ccc(Cl)c(C(=O)c2ccc(Cl)cc2)c1	100
O=C(Nc1cc(Cl)cc(C(=O)c2ccc(Cl)cc2)c1Cl)c1cc(Br)cc(Br)c1O	100

Hello, I would appreciate it if you could give TG Activity at various concentration of cmpd: 50 μM for each entry below.
1. Cc1ccc(NC(=O)c2ccc(O)cc2)cc1Cl
2. Cc1ccc(C(C)C)c(Oc2cc(Cl)ccc2NC(=O)c2cc(Br)cc(Br)c2O)c1

Result:
[100, 0]

Please state TG Activity at various concentration of cmpd: 50 μM for every compound in the list that follows.
1. Cc1ccc(C(C)C)cc1Oc1ccc(Cl)cc1NC(=O)c1cc(Cl)cc(Br)c1O [Compound 206]
2. O=C(c1ccccc1)c1cc(NC(=O)c2cc(Br)cc(Br)c2O)ccc1Cl

Result:
0
100

====

# Tested on: Mycobacterium smegmatis (ATCC11565, MS)
# test-details: Minimal inhibitory concentration (MIC), MS
# Format: cell-based
# condition-context: Mycolicibacterium smegmatis, ATCC11565, Mycobacterium smegmatis ATCC11565; read-out: MIC MS
Would you kindly list MIC for each of these molecules?
One number for each entry, in µg/mL.

item-smiles	unit-tag	MIC
O=C(Nc1cc(Cl)ccc1Cl)c1cc(Br)cc(Br)c1O	µg/mL	1
O=C(Nc1ccccc1O)c1cc(Br)cc(Br)c1O	µg/mL	4
O=C(Nc1ccc(Cl)cc1)c1cc(Br)cc(Br)c1O	µg/mL	1
O=C(Nc1cc(Cl)ccc1Cl)c1cc(Cl)cc(Cl)c1O	µg/mL	2
O=C(Nc1ccc(O)cc1)c1cc(Br)cc(Br)c1O	µg/mL	16

Report MIC for every entry below.
1. O=C(Nc1cccc(Cl)c1)c1cc(Br)cc(Br)c1O
2. O=C(Nc1cc(Cl)ccc1Oc1ccccc1)c1cc(Br)cc(Br)c1O
3. Cc1ccc(NC(=O)c2cc(Br)cc(Br)c2O)cc1Cl

Result:
1: 4; 2: 0.25; 3: 1

====

Answer each item with its documented TG Activity at various concentration of cmpd: 50 μM.
# assay-system: penicillin-binding protein 1b from E. coli (transglycosylase) (Escherichia coli)
# Construct: PBP1b[58-804] was amplified from E. coli genomic DNA and cloned into the expression vector pET15b; His6 (N, cleaved yes); made in house; host or cells: E. coli BL21(DE3)
# test-details: Lipid II polymerization / transglycosylase (TG) activity assay
# Assay type: biochemical
# condition-context: 50 μM compound; TG activity remaining (0% = full inhibition)
# Experimental: Lipid II polymerization assays were carried out by incubating 100 μM fluorophore-labeled lipid II and penicillin-binding protein 1b from E. coli in tubes containing 10 ng/μL N-acetyl muramidase in 50 mM Tris.HCl (pH 8.0), 10 mM MgCl2, 0.1% Triton X-100, 10% DMSO, and 15% MeOH for 30 minutes (Van Nieuwenhze et al. J Am Chem Soc 2002, 124, 3656.). The fluorophore can be dansyl chloride, NBD, BODIPY, fluorescein. […] The eluant was monitored for fluorescence with λex=466 nm and λem=535 nm. […]
Numbers only, in %.

item-smiles	assay-system	numeric-readout
O=C(Nc1cc(Cl)ccc1Oc1ccccc1)c1ccccc1	penicillin-binding protein 1b from E. coli (transglycosylase) (Escherichia coli)	100
Cc1ccc(C(=O)c2cc(Cl)cc(NC(=O)c3cc(Br)cc(Br)c3O)c2Cl)cc1	penicillin-binding protein 1b from E. coli (transglycosylase) (Escherichia coli)	100
O=C(Nc1ccccc1Oc1ccccc1)c1ccc(O)cc1	penicillin-binding protein 1b from E. coli (transglycosylase) (Escherichia coli)	100

Provide TG Activity at various concentration of cmpd: 50 μM values for the following items, in order.
1. O=C(Nc1ccc(Oc2ccc(Cl)cc2)c(Cl)c1)c1cc(Br)cc(Br)c1O
2. Cc1ccc(NC(=O)c2cc(Br)cc(Br)c2)cc1Cl

Result:
[60, 100]

====

What TG Activity at various concentration of cmpd: 100 μM was measured for each of the following?
# assay-system: penicillin-binding protein 1b from E. coli (transglycosylase) (Escherichia coli, UniProt P02919)
# Construct: PBP1b[58-804] was amplified from E. coli genomic DNA and cloned into the expression vector pET15b; His6 (N, cleaved yes); made in house; host or cells: E. coli BL21(DE3)
# Sequence (P02919 58-804): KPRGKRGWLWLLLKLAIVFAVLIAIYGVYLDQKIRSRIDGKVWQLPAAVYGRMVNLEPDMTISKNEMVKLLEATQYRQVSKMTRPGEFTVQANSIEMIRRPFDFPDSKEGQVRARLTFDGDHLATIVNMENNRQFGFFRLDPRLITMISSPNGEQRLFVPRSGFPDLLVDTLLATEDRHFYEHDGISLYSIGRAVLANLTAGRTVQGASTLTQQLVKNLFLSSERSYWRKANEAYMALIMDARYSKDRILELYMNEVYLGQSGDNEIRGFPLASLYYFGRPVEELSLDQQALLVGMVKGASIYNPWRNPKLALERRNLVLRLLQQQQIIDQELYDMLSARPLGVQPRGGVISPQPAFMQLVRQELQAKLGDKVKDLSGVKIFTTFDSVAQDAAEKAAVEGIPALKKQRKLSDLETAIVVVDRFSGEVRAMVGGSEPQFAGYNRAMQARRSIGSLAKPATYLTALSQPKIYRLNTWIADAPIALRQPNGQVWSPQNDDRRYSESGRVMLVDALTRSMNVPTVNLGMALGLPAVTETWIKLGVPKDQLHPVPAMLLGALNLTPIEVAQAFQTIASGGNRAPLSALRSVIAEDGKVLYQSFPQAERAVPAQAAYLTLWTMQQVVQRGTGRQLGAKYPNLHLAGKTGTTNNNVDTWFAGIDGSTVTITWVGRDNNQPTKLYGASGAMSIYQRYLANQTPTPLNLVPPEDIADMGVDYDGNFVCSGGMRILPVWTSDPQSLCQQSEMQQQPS
# test-details: Lipid II polymerization / transglycosylase (TG) activity assay
# Assay type: biochemical
# condition-context: 100 μM compound; TG activity remaining (0% = full inhibition)
Answers are plain numbers, in %.

Example cases with answers are listed next.
compound	numeric-readout
O=C(Nc1cc(Cl)ccc1Oc1ccccc1)c1ccccc1O [Compound A3N1]	100
O=C(Nc1cc(Cl)cc(C(=O)c2ccc(Cl)cc2)c1Cl)c1cc(Br)cc(Br)c1O [Compound 115]	0
O=C(Nc1ccc(Cl)cc1)c1cc(Br)cc(Br)c1O [KTS-9]	100
O=C(Nc1ccccc1Oc1ccccc1)c1cc(Br)cc(Br)c1 [Compound A2N2]	100

Now, please, on to the next compound.
Request: Reported TG Activity at various concentration of cmpd: 100 μM, compound Cc1ccc(NC(=O)c2cc(Br)cc(Br)c2)cc1Cl [Compound A2N3] : ____
Result: 100

====

Assign MIC MS to each entry below.
# Test system: Mycobacterium smegmatis (ATCC11565, MS)
# test-details: Minimal inhibitory concentration (MIC), MS
# Type: cell-based
# condition-context: Mycobacterium smegmatis ATCC11565
Answers are plain numbers, in µg/mL.

molecule	unit-tag	MIC MS
O=C(Nc1cc(Cl)cc(C(=O)c2ccccc2)c1Cl)c1cc(Br)cc(Br)c1O	µg/mL	0.5
Cc1ccc(C(C)C)cc1Oc1ccc(Cl)cc1NC(=O)c1cc(Cl)cc(Br)c1O [Compound 121]	µg/mL	0.25
O=C(c1ccccc1)c1cc(NC(=O)c2cc(Br)cc(Br)c2O)ccc1Cl	µg/mL	1
O=C(Nc1ccc(Cl)cc1)c1cc(Br)cc(Br)c1O	µg/mL	2
O=C(c1ccc(Cl)cc1)c1cc(NC(=O)c2cc(Cl)cc(Br)c2O)c(Cl)cc1Cl	µg/mL	0.06
O=C(Nc1cc(Cl)ccc1O)c1ccc(Cl)c(C(=O)c2ccc(Cl)cc2)c1	µg/mL	0.06
O=C(Nc1cc(Cl)c(Cl)c(Cl)c1)c1cc(Cl)cc(Cl)c1O [Compound 142]	µg/mL	0.125

Attention now shifts to the item below.
Request: Dear colleague, I am looking for the recorded MIC MS of the following molecule: `Cc1ccc(C(C)C)c(Oc2ccccc2NC(=O)c2cc(Br)cc(Br)c2O)c1`
Result: 8

====

Could you please report measured remaining activity at 50 µM for the items listed next?
# assay-system: penicillin-binding protein 1b from E. coli (transglycosylase) (Escherichia coli, UniProt P02919)
# Construct: PBP1b[58-804] was amplified from E. coli genomic DNA and cloned into the expression vector pET15b; His6 (N, cleaved yes); made in house; host or cells: E. coli BL21(DE3)
# test-details: Lipid II polymerization / transglycosylase (TG) activity assay
# Assay type: biochemical
# condition-context: read-out: TG Activity at various concentration of cmpd: 50 μM
Numbers only, in %.

Quick request: remaining activity at 50 µM for each listed item, please.
1. Cc1ccc(NC(=O)c2ccccc2O)cc1Cl
2. O=C(Nc1ccc(O)cc1)c1cc(Br)cc(Br)c1O
3. O=C(Nc1cc(Cl)ccc1Oc1ccccc1)c1cc(Br)cc(Br)c1O
4. O=C(Nc1ccc(Cl)cc1)c1ccccc1O
5. Cc1ccc(NC(=O)c2cc(Br)cc(Br)c2O)cc1Cl

Result:
[100, 70, 20, 100, 100]

Provide each entry's remaining activity at 50 µM from the list below.
1. Cc1ccc(NC(=O)c2ccc(O)c(O)c2O)cc1Cl
2. O=C(Nc1ccccc1O)c1cc(Br)cc(Br)c1O
3. O=C(Nc1cccc(Cl)c1)c1cc(Br)cc(Br)c1O
4. COc1ccc(NC(=O)c2ccccc2O)cc1
5. O=C(Nc1ccc([N+](=O)[O-])cc1)c1ccccc1O
6. O=C(Nc1cc(Cl)ccc1Cl)c1cc(Br)cc(Br)c1O
7. O=C(Nc1ccc(Cl)cc1)c1cc(Br)cc(Br)c1O

Result:
100
70
100
100
100
100
100
